System: MDR1
EXPERIMENTAL PROTOCOL: Efflux ratio of apparent permeability across basolateral to apical side over apical to basolateral side in MDCK-MDR1 cells at 5 uM measured after 2 hrs by LC-MS/MS analysis
Type: ADME, cell-based, Canis lupus familiaris
RUN PARAMETERS: dog
PARAMETER MEASURED: efflux ratio at 2 h, 5 µM
Please reply with the number alone, leaving off any unit.

Return reported efflux ratio at 2 h, 5 µM; argument: O=C(NO)c1ccc(Nc2c3ccccc3nc3ccc(Br)cc23)cc1
7.42

----------
TARGET OR TEST SYSTEM: Histone deacetylase 9 (Homo sapiens)
Sequence (Q9UKV0 whole entry, the tested form may be a part): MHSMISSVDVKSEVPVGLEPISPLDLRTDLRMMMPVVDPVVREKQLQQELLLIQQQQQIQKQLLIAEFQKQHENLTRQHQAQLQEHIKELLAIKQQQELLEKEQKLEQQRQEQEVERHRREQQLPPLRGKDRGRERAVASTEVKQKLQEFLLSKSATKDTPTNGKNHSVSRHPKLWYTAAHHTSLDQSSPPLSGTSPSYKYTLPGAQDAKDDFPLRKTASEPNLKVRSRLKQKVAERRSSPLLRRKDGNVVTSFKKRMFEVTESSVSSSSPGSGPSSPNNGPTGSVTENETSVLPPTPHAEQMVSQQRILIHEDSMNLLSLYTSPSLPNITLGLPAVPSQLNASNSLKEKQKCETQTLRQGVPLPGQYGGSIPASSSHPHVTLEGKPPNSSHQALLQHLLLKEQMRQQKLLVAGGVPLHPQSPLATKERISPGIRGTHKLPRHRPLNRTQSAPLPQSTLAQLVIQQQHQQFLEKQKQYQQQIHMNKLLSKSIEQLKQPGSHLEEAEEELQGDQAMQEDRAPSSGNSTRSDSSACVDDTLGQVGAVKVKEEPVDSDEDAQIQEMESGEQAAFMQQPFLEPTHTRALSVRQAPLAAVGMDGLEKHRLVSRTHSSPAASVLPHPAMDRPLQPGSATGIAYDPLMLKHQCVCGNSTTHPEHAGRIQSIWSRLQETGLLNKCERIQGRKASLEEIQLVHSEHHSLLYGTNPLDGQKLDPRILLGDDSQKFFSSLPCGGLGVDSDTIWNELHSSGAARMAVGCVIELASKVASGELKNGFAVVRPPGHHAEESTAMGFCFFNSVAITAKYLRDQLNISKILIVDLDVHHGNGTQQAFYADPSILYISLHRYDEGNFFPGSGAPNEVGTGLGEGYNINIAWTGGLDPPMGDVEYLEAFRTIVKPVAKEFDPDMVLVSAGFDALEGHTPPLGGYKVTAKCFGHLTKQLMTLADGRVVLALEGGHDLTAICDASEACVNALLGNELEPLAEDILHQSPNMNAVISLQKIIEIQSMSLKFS
EXPERIMENTAL PROTOCOL: Inhibition of recombinant human C-terminal His-tagged HDAC9 (604 to 1066 residues) expressed in baculovirus infected Sf9 cells using fluorogenic HDAC 2A substrate preincubated for 5 mins followed by substrate addition and measured after 30 mins by fluorescence assay
pIC50: −log10 of the molar value.
pIC50 of 5 or higher: true. Under 5: false.

Record excerpt, results attached:
O=C(NO)c1ccc(Nc2c3c(nc4ccccc24)CCCC3)cc1 = false
O=C(NO)c1ccc(Nc2c3ccccc3nc3ccc(F)cc23)cc1 = true
COc1cc2nc3ccccc3c(Nc3ccc(C(=O)NO)cc3)c2c(OC)c1OC = true
O=C(NO)c1ccc(Nc2c3ccccc3nc3ccc(OCc4ccccc4)cc23)cc1 = true
O=C(CCc1ccc(Nc2c3ccccc3nc3ccccc23)cc1)NO = false

Dear colleague, could you confirm whether O=C(NO)c1ccc(Nc2c3ccccc3nc3ccc(Br)cc23)cc1 has pIC50 at or above 5?
true

Does O=C(Cc1ccc(Nc2c3ccccc3nc3ccccc23)cc1)NO have a reported pIC50 of at least 5?
true

Item O=C(NO)c1ccc(Nc2c3ccccc3nc3ccc(OC(F)(F)F)cc23)cc1 with pIC50 of 5 or above?
false

Check the entry COc1ccc2nc3cc(Cl)ccc3c(Nc3ccc(C(=O)NO)cc3)c2n1 : does pIC50 equal or exceed 5?
false

Please tell me: is the compound O=C(NO)c1ccc(Nc2c3ccccc3nc3ccccc23)cc1 at or over 5 in terms of pIC50?
true

----------
EXPERIMENTAL PROTOCOL: Elimination rate constant in human liver microsomes at 1 uM preincubated for 3 mins followed by NADPH addition and measured up to 60 mins by LC-MS/MS analysis
Type: ADME, Microsome
RUN PARAMETERS: time <=63 min
PARAMETER MEASURED: k el at 1 h, 1 µM (s⁻¹)
Report the figure in s⁻¹ without appending any unit label.

// below: answered compounds
C[C@]12CC[C@H]3[C@@H](CCC4=CC(=O)CC[C@@]43C)[C@@H]1CC[C@@H]2O [TESTOSTERONE] = 0.00045
O=C(NO)c1ccc(Nc2c3ccccc3nc3ccccc23)cc1 = 0.00034

Okay, next one:
Tell me the measured k el at 1 h, 1 µM of O=C(NO)c1ccc(Nc2c3ccccc3nc3ccc(Br)cc23)cc1 , please.
0.000305

----------
TARGET OR TEST SYSTEM: Protein deacetylase HDAC6 (Homo sapiens)
Sequence (Q9UBN7 whole entry): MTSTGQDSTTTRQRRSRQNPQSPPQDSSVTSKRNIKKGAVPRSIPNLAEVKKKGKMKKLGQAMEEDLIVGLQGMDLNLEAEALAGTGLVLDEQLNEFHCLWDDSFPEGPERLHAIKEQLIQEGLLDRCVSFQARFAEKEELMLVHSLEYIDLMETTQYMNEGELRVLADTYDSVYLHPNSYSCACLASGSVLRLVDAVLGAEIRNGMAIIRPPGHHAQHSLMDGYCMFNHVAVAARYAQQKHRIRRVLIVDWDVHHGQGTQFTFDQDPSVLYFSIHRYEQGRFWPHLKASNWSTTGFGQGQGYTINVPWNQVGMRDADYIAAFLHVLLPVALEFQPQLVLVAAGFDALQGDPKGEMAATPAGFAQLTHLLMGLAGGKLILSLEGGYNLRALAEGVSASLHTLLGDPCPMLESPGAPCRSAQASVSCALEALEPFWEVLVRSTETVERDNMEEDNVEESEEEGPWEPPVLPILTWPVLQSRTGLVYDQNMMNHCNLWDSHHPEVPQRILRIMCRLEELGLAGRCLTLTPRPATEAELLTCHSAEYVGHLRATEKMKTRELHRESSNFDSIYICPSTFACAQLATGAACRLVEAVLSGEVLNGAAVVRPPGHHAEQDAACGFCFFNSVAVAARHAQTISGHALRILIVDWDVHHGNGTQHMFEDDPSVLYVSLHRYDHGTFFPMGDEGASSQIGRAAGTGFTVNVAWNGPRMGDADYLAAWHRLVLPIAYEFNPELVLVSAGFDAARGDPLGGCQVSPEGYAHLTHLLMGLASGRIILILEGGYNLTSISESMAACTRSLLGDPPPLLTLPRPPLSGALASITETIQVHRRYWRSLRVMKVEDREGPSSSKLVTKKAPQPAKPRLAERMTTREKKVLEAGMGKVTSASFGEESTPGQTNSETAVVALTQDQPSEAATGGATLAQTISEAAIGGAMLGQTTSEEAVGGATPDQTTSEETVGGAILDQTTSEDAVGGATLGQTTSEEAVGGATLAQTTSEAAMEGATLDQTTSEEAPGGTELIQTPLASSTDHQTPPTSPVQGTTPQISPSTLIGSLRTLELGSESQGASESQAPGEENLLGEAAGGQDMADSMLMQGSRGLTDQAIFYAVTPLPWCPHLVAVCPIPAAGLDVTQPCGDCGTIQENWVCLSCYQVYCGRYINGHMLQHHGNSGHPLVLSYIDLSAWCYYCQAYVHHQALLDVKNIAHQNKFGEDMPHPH
EXPERIMENTAL PROTOCOL: Inhibition of recombinant human full-length N-terminal GST-tagged HDAC6 expressed in baculovirus infected Sf9 insect cells using Boc-Lys(Ac)-AMC as substrate preincubated for 5 mins followed by substrate addition and measured after 30 mins by fluorescence assay
Labelling field: enter rule met if recorded IC50 is less than 0.04 µM. Enter rule not met if it equals or exceeds that cut-off.

O=C(CCc1ccc(Nc2c3ccccc3nc3ccccc23)cc1)NO = rule not met
O=C(NO)c1ccc(Nc2c3ccccc3nc3ccc(OCc4ccccc4)cc23)cc1 = rule not met
COc1cc2nc3ccccc3c(Nc3ccc(C(=O)NO)cc3)c2c(OC)c1OC = rule not met
O=C(NO)c1ccc(Nc2c3ccccc3nc3ccc(Br)cc23)cc1 = rule met
O=C(NO)c1ccc(Nc2c3ccccc3nc3ccc(F)cc23)cc1 = rule met

I wonder whether O=C(NO)c1ccc(Nc2c3c(nc4ccccc24)CCCC3)cc1 has IC50 below 0.04 µM. Can you tell?
rule not met

Answer whether the compound O=C(Cc1ccc(Nc2c3ccccc3nc3ccccc23)cc1)NO has IC50 strictly less than 0.04 µM
rule not met

Lab note: confirm whether the reported IC50 for this compound is below 0.04 µM, equality not counting. compound: O=C(NO)c1cccc(Nc2c3ccccc3nc3ccccc23)c1
rule not met

Strictly below 0.04 µM in IC50? COc1ccc2nc3cc(Cl)ccc3c(Nc3ccc(C(=O)NO)cc3)c2n1
rule not met

Please state whether IC50 is below 0.04 µM for O=C(NO)c1ccc(Nc2c3ccccc3nc3ccccc23)cc1
rule met

Does this compound meet the criterion IC50 < 0.04 µM? O=C(NO)c1ccc(Nc2c3ccccc3nc3ccc(OC(F)(F)F)cc23)cc1
rule met

----------
TARGET OR TEST SYSTEM: UniProt P22303
Sequence (P22303 whole entry): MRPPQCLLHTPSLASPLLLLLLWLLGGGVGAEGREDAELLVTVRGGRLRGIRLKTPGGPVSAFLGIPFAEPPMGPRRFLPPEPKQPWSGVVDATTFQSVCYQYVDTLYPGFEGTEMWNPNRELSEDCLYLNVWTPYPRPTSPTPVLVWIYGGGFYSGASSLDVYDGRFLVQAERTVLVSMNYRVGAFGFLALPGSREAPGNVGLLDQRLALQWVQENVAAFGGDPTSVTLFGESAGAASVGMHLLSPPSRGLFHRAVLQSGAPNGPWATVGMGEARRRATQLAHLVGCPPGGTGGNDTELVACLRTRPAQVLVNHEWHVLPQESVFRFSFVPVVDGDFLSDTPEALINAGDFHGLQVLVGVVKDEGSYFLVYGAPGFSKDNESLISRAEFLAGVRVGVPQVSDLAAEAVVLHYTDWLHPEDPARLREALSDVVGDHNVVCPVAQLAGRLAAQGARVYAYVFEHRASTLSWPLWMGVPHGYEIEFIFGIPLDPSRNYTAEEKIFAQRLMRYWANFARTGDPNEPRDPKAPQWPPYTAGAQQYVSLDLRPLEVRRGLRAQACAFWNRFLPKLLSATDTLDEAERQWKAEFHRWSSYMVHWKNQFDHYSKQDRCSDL
EXPERIMENTAL PROTOCOL: Inhibition of recombinant human C-terminal 6His-tagged AChE (Glu32 to Leu614 residues) expressed in CHO cells using acetylthiocholine iodide as substrate preincubated for 5 mins measured after 15 mins by DTNB reagent based assay
PARAMETER MEASURED: IC50 (nM)
Please state the figure in nM; there is no need to write the unit.

Would you please look over these solved cases?
c1ccc2nc3ccccc3cc2c1 = 6840
O=C(NO)c1ccc(Nc2c3ccccc3nc3ccccc23)cc1 = 720
O=C(NO)c1ccc(Nc2c3c(nc4ccccc24)CCCC3)cc1 = 1970
O=C(NO)c1ccc(Nc2ccnc3ccccc23)cc1 = 830

Query IC50 on UniProt P22303 for O=C(NO)c1ccc(Nc2c3ccccc3nc3ccc(Br)cc23)cc1
880

Kindly state the measured IC50 obtained for O=C(NO)c1ccc(Nc2c3ccccc3nc3ccc(OC(F)(F)F)cc23)cc1 with UniProt P22303.
3650

----------
inhibition values by entry
TARGET OR TEST SYSTEM: UniProt:P05067
Sequence (P05067 whole entry): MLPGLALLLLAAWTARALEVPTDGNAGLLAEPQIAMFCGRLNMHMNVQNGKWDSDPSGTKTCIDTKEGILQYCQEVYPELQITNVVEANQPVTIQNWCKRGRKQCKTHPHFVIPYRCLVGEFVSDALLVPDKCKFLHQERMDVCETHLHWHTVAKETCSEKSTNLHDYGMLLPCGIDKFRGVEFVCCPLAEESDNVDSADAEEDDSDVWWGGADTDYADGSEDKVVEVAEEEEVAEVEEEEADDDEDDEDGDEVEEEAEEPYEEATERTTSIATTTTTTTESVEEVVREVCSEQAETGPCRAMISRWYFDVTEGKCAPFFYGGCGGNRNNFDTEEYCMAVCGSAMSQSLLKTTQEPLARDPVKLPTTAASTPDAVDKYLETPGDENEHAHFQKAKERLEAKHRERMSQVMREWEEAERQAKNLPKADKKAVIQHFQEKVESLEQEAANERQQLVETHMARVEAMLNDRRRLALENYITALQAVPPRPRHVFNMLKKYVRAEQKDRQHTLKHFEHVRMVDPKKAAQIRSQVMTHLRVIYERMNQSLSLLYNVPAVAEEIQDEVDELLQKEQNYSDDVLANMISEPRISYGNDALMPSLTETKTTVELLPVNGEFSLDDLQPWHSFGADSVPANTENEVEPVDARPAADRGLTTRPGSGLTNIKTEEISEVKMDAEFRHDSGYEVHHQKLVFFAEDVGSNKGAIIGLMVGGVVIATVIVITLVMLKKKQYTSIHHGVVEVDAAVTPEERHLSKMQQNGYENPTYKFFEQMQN
EXPERIMENTAL PROTOCOL: Disaggregation of self-induced amyloid beta (1 to 42) (unknown origin) preformed fibrils at 10 uM measured after 24 hrs by thioflavin-T fluorescence assay relative to control
Give the value in % but do not write % after it.

Example cases with answers are listed next.
COc1ccc2nc3cc(Cl)ccc3c(Nc3ccc(C(=O)NO)cc3)c2n1 = 53
O=C(NO)c1ccc(Nc2c3ccccc3nc3ccc(OC(F)(F)F)cc23)cc1 = 53
O=C(NO)c1ccc(Nc2c3ccccc3nc3ccc(OCc4ccccc4)cc23)cc1 = 57
O=C(NO)c1ccc(Nc2c3ccccc3nc3ccccc23)cc1 = 41
O=C(NO)c1ccc(Nc2c3ccccc3nc3ccc(Br)cc23)cc1 = 70
O=C(NO)c1ccc(Nc2c3ccccc3nc3ccc(F)cc23)cc1 = 38
O=C(NO)c1ccc(Nc2ccnc3ccccc23)cc1 = 0
COc1cc2nc3ccccc3c(Nc3ccc(C(=O)NO)cc3)c2c(OC)c1OC = 42

I would be grateful if you could share the reported inhibition for O=C(NO)c1ccc(Nc2c3c(nc4ccccc24)CCCC3)cc1 .
0

Quick one: inhibition of O=C(CCCCCCC(=O)Nc1ccccc1)NO [VORINOSTAT] ?
0

----------
Test system: MDR1
EXPERIMENTAL PROTOCOL: Apparent permeability of compound in MDCK-MDR1 cells at 5 uM measured after 2 hrs by LC-MS/MS analysis
Type: ADME, cell-based, Canis lupus familiaris
RUN PARAMETERS: dog
PARAMETER MEASURED: Papp at 2 h, 5 µM (×10⁻⁶ cm/s)
Write the answer as a number in ×10⁻⁶ cm/s, unit excluded.

Could you tell me which Papp at 2 h, 5 µM is on file for O=C(NO)c1ccc(Nc2c3ccccc3nc3ccc(Br)cc23)cc1 ?
4.57

Please give the measured Papp at 2 h, 5 µM for this compound: O=C(NO)c1ccc(Nc2c3ccccc3nc3ccccc23)cc1
2.72

----------
Documented pIC50 across a set of compounds
TARGET OR TEST SYSTEM: Histone deacetylase 2 (Homo sapiens)
Sequence (Q92769 whole entry): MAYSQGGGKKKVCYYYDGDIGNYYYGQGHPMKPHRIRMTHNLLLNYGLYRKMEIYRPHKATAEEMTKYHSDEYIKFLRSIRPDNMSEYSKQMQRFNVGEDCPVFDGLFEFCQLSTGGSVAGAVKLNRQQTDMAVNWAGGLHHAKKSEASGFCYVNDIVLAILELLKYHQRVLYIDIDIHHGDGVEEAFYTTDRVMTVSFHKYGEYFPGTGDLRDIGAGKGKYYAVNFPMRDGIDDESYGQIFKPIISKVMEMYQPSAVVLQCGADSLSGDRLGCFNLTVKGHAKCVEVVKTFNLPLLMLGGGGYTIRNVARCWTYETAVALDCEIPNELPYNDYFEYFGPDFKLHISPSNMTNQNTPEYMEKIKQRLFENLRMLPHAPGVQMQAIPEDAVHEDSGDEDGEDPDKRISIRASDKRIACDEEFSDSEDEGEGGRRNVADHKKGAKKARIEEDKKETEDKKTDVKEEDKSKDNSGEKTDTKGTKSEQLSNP
EXPERIMENTAL PROTOCOL: biochemical
Description: Inhibition of recombinant human C-terminal His-tagged HDAC2 (1 to 488 residues) expressed in Sf9 insect cells using fluor de lys SIRT1 as substrate preincubated for 5 mins followed by substrate addition and measured after 30 mins by fluorescence assay
The scale used: pIC50 is minus the common logarithm of the concentration in molar units.

O=C(NO)c1ccc(Nc2c3ccccc3nc3ccccc23)cc1 = 5.80

# next compound below
What value of pIC50 has been recorded for this entry: O=C(NO)c1ccc(Nc2c3ccccc3nc3ccc(Br)cc23)cc1
6.32

----------
# key: entry, value: pIC50
TARGET OR TEST SYSTEM: UniProt Q8WUI4
Sequence (Q8WUI4 whole entry): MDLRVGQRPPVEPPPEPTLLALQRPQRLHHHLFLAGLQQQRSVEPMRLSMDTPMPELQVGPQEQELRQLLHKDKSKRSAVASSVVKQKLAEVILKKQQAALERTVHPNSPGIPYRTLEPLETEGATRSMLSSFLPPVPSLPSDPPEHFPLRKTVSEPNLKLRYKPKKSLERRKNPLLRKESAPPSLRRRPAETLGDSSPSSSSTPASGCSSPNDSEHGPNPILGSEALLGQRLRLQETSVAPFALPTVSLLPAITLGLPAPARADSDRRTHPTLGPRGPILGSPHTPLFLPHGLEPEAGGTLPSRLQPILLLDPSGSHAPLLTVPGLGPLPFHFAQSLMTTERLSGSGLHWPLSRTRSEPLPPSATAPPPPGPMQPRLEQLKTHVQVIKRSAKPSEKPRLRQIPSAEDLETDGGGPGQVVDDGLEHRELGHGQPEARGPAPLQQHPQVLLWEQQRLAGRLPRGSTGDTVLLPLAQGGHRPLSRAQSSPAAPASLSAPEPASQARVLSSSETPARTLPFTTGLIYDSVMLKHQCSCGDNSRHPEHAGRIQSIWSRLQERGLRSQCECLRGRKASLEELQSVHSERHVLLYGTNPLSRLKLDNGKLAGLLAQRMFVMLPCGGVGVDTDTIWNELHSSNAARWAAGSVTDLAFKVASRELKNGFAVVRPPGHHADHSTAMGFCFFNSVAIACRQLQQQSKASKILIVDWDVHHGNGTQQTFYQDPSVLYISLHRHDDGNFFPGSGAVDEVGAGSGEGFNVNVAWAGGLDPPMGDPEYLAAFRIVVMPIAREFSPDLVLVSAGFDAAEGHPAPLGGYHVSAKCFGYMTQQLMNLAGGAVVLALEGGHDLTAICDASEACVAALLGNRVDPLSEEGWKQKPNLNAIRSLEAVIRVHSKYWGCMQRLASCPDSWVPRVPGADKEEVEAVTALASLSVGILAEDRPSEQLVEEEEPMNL
EXPERIMENTAL PROTOCOL: Inhibition of recombinant human N-terminal GST-tagged HDAC7 (518 to end residues) expressed in baculovirus infected Sf9 cells using fluorogenic HDAC 2A substrate preincubated for 5 mins followed by substrate addition and measured after 30 mins by fluorescence assay
Convention used: pIC50 is expressed as -log10 of the molar concentration.

Some compounds with known pIC50 results, for comparison:
O=C(Cc1ccc(Nc2c3ccccc3nc3ccccc23)cc1)NO = 5.71
O=C(NO)c1ccc(Nc2c3ccccc3nc3ccc(Br)cc23)cc1 = 5.04
COc1cc2nc3ccccc3c(Nc3ccc(C(=O)NO)cc3)c2c(OC)c1OC = 5.34

What does the record list as pIC50 for O=C(NO)c1ccc(Nc2c3ccccc3nc3ccc(OCc4ccccc4)cc23)cc1 ?
5.51

The reported numbers originate from ChEMBL document CHEMBL4680220.
